assay_text: collision cross section (N2, base ion); higher = larger ion cross section
# maps each entry to its collision cross section
API: value field is a number in Å²; no unit string.

Solved cases (3 shown):
[[record]]
compound = "CCCCC(CC)COP(=O)(OCC(CC)CCCC)OCC(CC)CCCC (stereo unspecified) [Tris(2-ethylhexyl) phosphate] (APCI source condition: Wet, base ion: [M+H]+)"
assay_result = 221.61

[[record]]
compound = "c1ccc2c(c1)cc1ccc3cccc4ccc2c1c34 [Benzo(a)pyrene] (APCI source condition: Dry, base ion: M+.)"
assay_result = 143.28

[[record]]
compound = "O=S1OC[C@@H]2[C@H](CO1)[C@@]1(Cl)C(Cl)=C(Cl)[C@]2(Cl)C1(Cl)Cl (stereo partly drawn) [α-Endosulfan] (APCI source condition: Wet, base ion: [M+H]+)"
assay_result = 163.16


Ask: Output measured collision cross section for this item: O=P(OCCCl)(OCCCl)OCCCl [Tris(2-chloroethyl) phosphate] (APCI source condition: Wet, base ion: [M+H]+)
Result: 145.65

Ask: Output measured collision cross section for this item: c1ccc2c(c1)ccc1ccc3ccccc3c12 [Benzo(c)phenanthrene] (APCI source condition: Dry, base ion: M+.)
Result: 140.99

Ask: Output measured collision cross section for this item: Clc1ccc(Cl)c(-c2c(Cl)cccc2Cl)c1 [PCB 53] (APCI source condition: Dry, base ion: M+.)
Result: 144.4
